Test system: OVCAR-5 ovarian
Test: NCI tumour cell line growth inhibition, 48 h
measure_name: TGI

Answered cases to consult:
compound: CSc1cccc(NC(=O)OC2CCCCCCCCCCC2)c1
measure_name: TGI
measured: > 100 µM
--
compound: COc1cc2c(c(OC3OC(CO)C(O)C(O)C3O)c1)C(=O)CC(c1ccc(O)cc1)O2 (stereo not drawn)
measure_name: TGI
measured: > 100 µM
--
compound: CC(CCCOC(c1ccccc1)(c1ccccc1)c1ccccc1)OC(=O)Nc1ccccc1 (stereo not drawn)
measure_name: TGI
measured: 26.8 µM
--
compound: C/C(=N\NC(=S)NCc1ccccc1)c1nc2ncccc2[nH]1
measure_name: TGI
measured: 30.2 µM
--
compound: CC1=NN=C(N)NC1=CC(Sc1ccc(Cl)cc1)c1c(O)ccc2ccccc12 (stereo not drawn)
measure_name: TGI
measured: > 61.9 µM

stdin: Input O=C(NO)c1ccc(O)c(O)c1 , output reported TGI.
stdout: > 100 µM

stdin: Name the recorded TGI of the item O=c1[nH]n(Cc2ccccc2Cl)c2ccccc12 in your answer.
stdout: > 100 µM

stdin: Identify measured TGI associated with Cc1ccc2c(=O)cc(-c3sc4ccccc4c3C)[nH]c2n1
stdout: > 100 µM

----------
System: LXFL 529 NSCLC
Assay: NCI tumour cell line growth inhibition, 48 h
measure_name: TGI

// below: answered compounds
compound: O=S(=O)(C/C(=N\O)c1ccccc1)c1ccccc1
TGI: > 100 µM

compound: O=C(CC1C(=O)Nc2ccccc2S1=O)Nc1ccc(Cl)cc1 (stereo not drawn)
TGI: > 100 µM

# evaluate next
stdin: Note TGI for the compound shown: CC(C)c1cc(OCC(O)CO)cc(C(C)C)c1 (stereo not drawn)
stdout: > 100 µM

----------
Test system: OVCAR-8 ovarian
Test: NCI tumour cell line growth inhibition, 48 h
measure_name: TGI (µM)
// units = µM; emit number, no label

compound: CC[C@@H]1/C=C/C=C/C[C@H](C)[C@@H](O)[C@](C)(O)C(=O)[C@H](C)[C@@H](O)[C@H](C)C(=O)[C@H](C)[C@@H](O)[C@H](C)/C=C/C(=O)O[C@H]2[C@@H](C)[C@@H](CC1)O[C@@]1(CC[C@@H](C)[C@@H](CC(C)O)O1)[C@@H]2C (stereo not given in full)
assayed_target: OVCAR-8 ovarian
value_units: µM
measured: 8.85

stdin: Indicate its recorded TGI; the compound in question is CCOC(OC1=C(C#N)CCCC1)C(C)[Se]c1ccccc1 (stereo not given)
stdout: 63.9

stdin: Retrieve TGI measured for COc1cc(Cl)cc(-c2nn(-c3cccc(NC(=O)Nc4ccc(Cl)c(C(F)(F)F)c4)c3)cc2-c2ccncc2)c1 and print it.
stdout: 5.93

stdin: Give recorded TGI. O=C1Oc2cc3c(c4cccc1c24)O[C@H](c1ccccc1)[C@@H](c1ccccc1)[C@@H]3c1ccc(Cl)cc1
stdout: 95.8

stdin: Query TGI for O=C(/C=C1/Nc2ccc([N+](=O)[O-])cc2NC1O)c1cccc([N+](=O)[O-])c1 (stereo not given)
stdout: 48.7

stdin: Kindly indicate its recorded TGI. Item: N#Cc1cc(S(=O)(=O)Nc2nc3ccccc3s2)c(SCc2ccccc2)cc1Cl
stdout: 39.8

----------
TGI for assorted molecules
Test system: SF-539 CNS
Experiment: NCI tumour cell line growth inhibition, 48 h

Worked cases, answers included:
molecule: CC1OC(OC2C(Oc3cc(O)c4c(c3)O[C@H](c3ccc(O)cc3)CC4=O)OC(CO)C(O)C2O)C(O)C(O)C1O (some centres undefined)
measure_name: TGI
measured: > 100 µM
--
molecule: Cc1ncc([N+](=O)[O-])n1CCNC(=O)Cn1c([N+](=O)[O-])cnc1C
measure_name: TGI
measured: > 100 µM
--
molecule: CCc1nc(N)nc(N)c1-c1ccc(Cl)c(N=CN(C)C)c1
measure_name: TGI
measured: > 100 µM

stdin: Report measured TGI; entry is COc1ccc(N2C(=O)CC(c3c[nH]c4ncccc34)C2=O)cc1 (centres undefined)
stdout: > 65.3 µM

stdin: Return TGI for the following molecule: CN(C)Cc1cc(C(C)(C)C)cc(C2CCCCC2)c1O
stdout: 22.8 µM

stdin: Please look at this molecule and report its TGI: ClCc1ccc(Cn2cnc3c(Cl)nc(Cl)nc32)cc1
stdout: 31.1 µM

----------
System: HOP-62 NSCLC
Assay: NCI tumour cell line growth inhibition, 48 h
measure_name: TGI

Take a look at these entries with their results.
molecule: CN1C(=O)C2C=C3CCCCC3=CC2N(C)C1=O (stereo not drawn)
assayed_target: HOP-62 NSCLC
TGI: > 100 µM

molecule: NCCSCCc1ccccc1
assayed_target: HOP-62 NSCLC
TGI: > 100 µM

From here, focus on the item given below.
stdin: Return TGI for the following molecule: COc1ccc(-c2nn(-c3cccc(NC(=O)c4ccc(N5CCOCC5)c(C(F)(F)F)c4)c3)cc2-c2ccncc2)cc1Cl
stdout: > 50 µM

----------
System: RPMI-8226 leukemia
Experiment: NCI tumour cell line growth inhibition, 48 h
measure_name: TGI

Example results:
molecule: Cc1cc(-c2nc3cccc(F)c3s2)ccc1N
measured: > 100 µM
--
molecule: O=C(NNC(=O)c1ccccc1O)c1ccc(O)cc1
measured: > 100 µM
--
molecule: Cc1cc(Cl)ccc1C1OC(=O)c2c1ccc1ccccc21 (centres undefined)
measured: > 100 µM
--
molecule: CC(=O)NNc1nc(C)c(C(=O)NNC(=O)C(=O)Nc2c(C)cccc2C(C)(C)C)s1
measured: > 100 µM
--
molecule: COCCOC(=O)C(C)=[N+]=[N-]
measured: > 100 µM

stdin: Tell me its TGI given Cc1ccc(S(=O)(=O)c2c(N)n(CCN(C)C)c3nc4ccccc4nc23)cc1 as the entry.
stdout: > 100 µM

stdin: Indicate its recorded TGI; the molecule in question is CCCCNC(=S)/N=C/c1c(O)c2ccccc2[nH]c1=O
stdout: > 10 µM

stdin: Look up and state reported TGI for COc1ccc2nc(NC(=O)C(=O)C(C#N)c3ccc(Cl)c(Cl)c3)sc2c1 (centres undefined)
stdout: > 100 µM

stdin: Supply reported TGI belonging to this molecule: O=C(Nc1ccc(Cl)c(Cl)c1)OCCN1c2ccccc2Sc2ccccc21
stdout: > 10 µM

----------
Tested on: NCI-H23 lung
Experiment: NCI tumour cell line growth inhibition, 48 h
Each entry below carries its reported TGI.

stdin: Assign TGI to the following record: N#CC(C#N)=Cn1c(=S)[nH]c2ccccc21
stdout: > 100 µM

stdin: Give the value of TGI reported for the following: CN1C(=O)C2C=C3CCCCC3=CC2N(C)C1=O (stereo unspecified)
stdout: > 100 µM

stdin: For the molecule C/C=C/[C@H](O[Si](C)(C)C(C)(C)C)[C@@H](O)/C=C/C(=O)OCC , give its reported TGI.
stdout: > 100 µM

stdin: Give TGI for O=[N+]([O-])c1cccc(C2=NOC3C4CCC(C4)C23)c1 (stereo unspecified)
stdout: > 100 µM

stdin: Fill in TGI for record COC1OC2COC(c3ccccc3)OC2C(O)C1Br (stereo unspecified)
stdout: > 100 µM

stdin: For the molecule Cc1cccc(C(C)(C)C)c1NC(=O)CC1Sc2ccccc2NC1=O (stereo unspecified) , report TGI.
stdout: > 100 µM

----------
Test system: RXF 393 renal
Test: NCI tumour cell line growth inhibition, 48 h
measure_name: TGI

compound: CCCCCCC(/C=N/O)C(C)(O)CCC (stereo not given)
assayed_target: RXF 393 renal
TGI: > 100 µM

compound: O=C(CC1C(=O)c2ccccc2C1=C1C(=O)c2ccccc2C1=O)c1ccccc1 (stereo not given)
assayed_target: RXF 393 renal
TGI: > 100 µM

compound: CCOC(=O)c1c(N2CCCC2)[nH]c(=O)c(C(c2cccs2)c2c(O)c(C(=O)OCC)c(N3CCCC3)[nH]c2=O)c1O
assayed_target: RXF 393 renal
TGI: > 100 µM

compound: CCC(=O)C(C(C)/C=C/CCSc1ccccc1)C(O)CCCCCC(=O)OC (stereo not given)
assayed_target: RXF 393 renal
TGI: > 100 µM

stdin: For CC#CC(O)(C(=O)OC1CC2CCC(C1)N2C)C1CCCC1 (stereo not given) , write its TGI.
stdout: > 100 µM

----------
System: MDA-N
Test: NCI tumour cell line growth inhibition, 48 h
measure_name: TGI

Consider the worked cases shown below.
compound: CCN(CC)CCO/N=C1/C=C2CCC3C(CC[C@@]4(C)C3CC[C@]4(C)O)[C@@]2(C)CC1 (stereo partly drawn)
measure_name: TGI
measured: 5.72 µM

compound: O=C(CSC1=NNC2(C(=O)N1)c1ccccc1-c1ccccc12)NC(=S)Nc1ccccc1
measure_name: TGI
measured: > 10 µM

compound: NC(=O)c1cccc([C@@H]2O[C@H](CO)[C@@H](O)[C@H]2O)c1
measure_name: TGI
measured: > 100 µM

compound: OC(C/C=N/Nc1ccccc1)(C(F)(F)Cl)C(F)(F)Cl
measure_name: TGI
measured: > 10 µM

compound: N#Cc1sc2c(c1O)c(=O)n(-c1ccccc1)c(=S)n2-c1ccccc1
measure_name: TGI
measured: > 100 µM

compound: Cc1cc(-c2nc3cccc(F)c3s2)ccc1N
measure_name: TGI
measured: > 100 µM

stdin: Look up and report measured TGI (MDA-N) for the following compound: CC[C@@H]1/C=C/C=C/C[C@H](C)[C@@H](O)[C@](C)(O)C(=O)[C@H](C)[C@@H](O)[C@H](C)C(=O)[C@H](C)[C@@H](O)[C@H](C)/C=C/C(=O)O[C@H]2[C@@H](C)[C@@H](CC1)O[C@@]1(CC[C@@H](C)[C@@H](CC(C)O)O1)[C@@H]2C (stereo partly drawn)
stdout: 6.72 µM

stdin: Answer briefly: TGI recorded on MDA-N for O=c1[nH]n(Cc2ccccc2Cl)c2ccccc12
stdout: > 100 µM
